Origin of measurements: BindingDB's records for patent US12391660

# system.name: Transient receptor potential cation channel subfamily A member 1 (Homo sapiens, UniProt O75762)
# Sequence (O75762 whole entry): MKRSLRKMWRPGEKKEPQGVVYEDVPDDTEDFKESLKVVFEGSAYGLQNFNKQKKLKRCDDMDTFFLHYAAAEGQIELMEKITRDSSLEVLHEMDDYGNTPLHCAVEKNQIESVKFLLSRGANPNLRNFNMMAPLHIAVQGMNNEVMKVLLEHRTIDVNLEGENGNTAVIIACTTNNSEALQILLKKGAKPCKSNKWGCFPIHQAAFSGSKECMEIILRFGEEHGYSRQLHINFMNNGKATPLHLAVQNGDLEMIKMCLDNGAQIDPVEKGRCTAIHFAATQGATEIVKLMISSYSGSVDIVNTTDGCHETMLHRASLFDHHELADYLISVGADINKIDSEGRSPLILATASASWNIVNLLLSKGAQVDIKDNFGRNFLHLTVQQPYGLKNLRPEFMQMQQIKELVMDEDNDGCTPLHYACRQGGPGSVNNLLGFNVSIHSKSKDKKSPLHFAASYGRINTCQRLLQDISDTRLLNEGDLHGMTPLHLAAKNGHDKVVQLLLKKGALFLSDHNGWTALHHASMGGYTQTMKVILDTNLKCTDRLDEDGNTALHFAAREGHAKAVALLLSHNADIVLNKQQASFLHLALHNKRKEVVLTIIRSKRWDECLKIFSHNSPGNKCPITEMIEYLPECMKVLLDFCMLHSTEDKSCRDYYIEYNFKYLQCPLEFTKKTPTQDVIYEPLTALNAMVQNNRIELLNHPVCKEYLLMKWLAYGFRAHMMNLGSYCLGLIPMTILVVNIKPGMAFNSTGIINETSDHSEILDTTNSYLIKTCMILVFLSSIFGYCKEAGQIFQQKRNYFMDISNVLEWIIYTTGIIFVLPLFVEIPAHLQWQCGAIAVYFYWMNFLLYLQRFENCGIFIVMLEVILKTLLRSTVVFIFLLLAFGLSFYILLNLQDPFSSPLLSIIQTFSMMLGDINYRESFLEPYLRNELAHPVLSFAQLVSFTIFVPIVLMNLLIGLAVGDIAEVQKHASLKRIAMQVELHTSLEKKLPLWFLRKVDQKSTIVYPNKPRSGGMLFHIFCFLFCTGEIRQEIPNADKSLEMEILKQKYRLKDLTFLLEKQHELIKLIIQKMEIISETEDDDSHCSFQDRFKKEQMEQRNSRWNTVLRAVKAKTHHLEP
# assay.notes: FLIPR Assay of Inhibitory Activity on Human TRPA1
Listed here: items and their measured pIC50.
Expect pIC50 as a plain number equal to -log10 of the molar concentration.

chemical.structure: O=C(N1CCN(c2cccc(C(F)(F)F)n2)CC1)C1(Nc2ccc(Cl)cc2)CCCC1
assay.metric: pIC50
val: 7.25

chemical.structure: CN(c1ccc(C#N)cc1)C1(C(=O)N2CCC(C(C)(C)C)CC2)CCCC1
assay.metric: pIC50
val: 6.55

chemical.structure: O=C(N1CCN(c2ccc(C(F)(F)F)nn2)CC1)C1(Nc2ccc([N+](=O)[O-])cc2)CCCC1
assay.metric: pIC50
val: 6.06

For the next question, use this compound.
Retrieve pIC50 measured for Cn1cc(OC2(C(=O)N3CCN(c4ccc(C(F)(F)F)cn4)CC3)CCCC2)nc1C#N and print it. 5.54
